Data provenance is paper PMC5540273.

tested on: CSNK1E; settings: concentration: 1 μM, replicates: in singlicate; n = 1
Test readout: %Inh (%)
State just the number; it will be interpreted in %.

Problem: Reported %Inh for CS(=O)(=O)CCNCc1nc(-c2ccc3ncnc(Nc4ccc5c(cnn5Cc5ccccc5)c4)c3c2)cs1.Cl.Cl [GW569716] : what is it?
Result: 21

Problem: // next record Cc1ccc(NC(=O)Nc2ccccc2F)cc1-c1ccc(C(=O)Nc2ccncc2)cc1 [GSK1398477]
Result: 16

Problem: // next record Nc1cccc(-c2ccc3c(N)n[nH]c3c2)n1 [GSK2192730]
Result: 39

Problem: // next record CNCc1ccc2nc(NC(=O)c3ccc(C(C)(C)C)cc3)cn2c1
Result: 3

Problem: // next record Fc1ccc(-c2nc3n(c2-c2ccncc2)CCS3)cc1 [GI98581]
Result: 98.2

Problem: // next record Cc1ccc(NC(=O)c2ccc(Cl)cc2)cc1-c1ccc(C(=O)Nc2ccncc2)cc1 [GSK1398467]
Result: 11

Problem: // next record NS(=O)(=O)c1cccc(N/C=C2\C(=O)Nc3ccc(S(=O)(=O)Cc4c(Cl)cccc4Cl)cc32)c1 [GSK398099]
Result: 18

====

Each item that follows carries a reported %Inh.
system: MAP3K15; conditions: concentration: 1 μM, replicates: in singlicate; n = 1
State just the number; it will be interpreted in %.

Solved entries (count: 2):
Compound	%Inh, %
CNc1nc(-c2ccc3c(N)n[nH]c3c2)cc(N2C[C@@H](C(=O)NC3CCCCC3)OC[C@H]2C)n1	0
COC(=O)c1cccc(NC(=O)NC2CCN(c3ccnc(Nc4ccc(F)cc4)n3)C2)c1 (centres unmarked)	0

Problem: Tell me reported %Inh for Cn1cnc2c(N)ncnc21 , tested with MAP3K15.
Result: 0

Problem: // next record COc1cccc(NC(=O)Nc2ccc(C)c(-c3ccc(C(=O)Nc4ccncc4)cc3)c2)c1
Result: 0

Problem: // next record CNc1nc(-c2ccc3c(N)n[nH]c3c2)cc(N2C[C@@H](C(=O)Nc3ccccc3)CC[C@H]2C)n1
Result: 0

Problem: // next record COC(=O)C(Cc1ccccc1)NC(=O)NC1CCN(c2ccnc(Nc3ccc(F)cc3)n2)C1 (centres unmarked)
Result: 0

Problem: // next record Cn1cncc1-c1cc2c(Nc3ccc(OCc4ccccc4)cc3)ncnc2cn1
Result: 0

Problem: // next record CS(=O)(=O)CCNCc1nc(-c2ccc3ncnc(Nc4ccc5c(cnn5Cc5ccccc5)c4)c3c2)cs1.Cl.Cl
Result: 0

Problem: // next record CC[C@@H]1CO[C@H](C(=O)Nc2ccccc2)CN1c1cc(-c2ccc3c(N)n[nH]c3c2)nc(NC)n1
Result: 0

Problem: // next record COc1ccc(Nc2nccc(N3CCC(NC(=O)C(C)c4ccc(Cl)cc4)C3)n2)cc1 (centres unmarked)
Result: 11

Problem: // next record Fc1ccc(-c2nc[nH]c2-c2ccncc2)cc1
Result: 3

Problem: // next record Cc1ccc(NC(=O)Nc2ccccc2F)cc1-c1ccc(C(=O)Nc2ccncc2)cc1
Result: 0

Problem: // next record CCc1ccc(-c2ccc3c(c2)-c2n[nH]cc2S(=O)(=O)N3C)cc1
Result: 0

Problem: // next record COc1ccc(Nc2nccc(N3CCC(NC(=O)C(C)c4ccc(Cl)cc4)CC3)n2)cc1 (centres unmarked)
Result: 0

Problem: // next record COc1cccc(CNC(=O)NC2CCN(c3ccnc(Nc4ccc(F)cc4)n3)C2)c1 (centres unmarked)
Result: 0

Problem: // next record Cc1ccc(NC(=O)Nc2ccccc2)cc1-c1ccc(C(=O)Nc2ccncc2)cc1
Result: 0

Problem: // next record O=C(Nc1n[nH]c2nc(-c3cccs3)c(Br)cc12)C1CC1
Result: 41

Problem: // next record Nc1ncnc2occ(-c3ccc4c(c3)CCN4C(=O)Cc3cc(F)ccc3F)c12
Result: 0

====

system: WEE1;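 further: kd values determined as follow-up on hits from a single-replicate KINOMEscan panel screen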
pKd: −log10 of the molar value.
Test readout: pKd

Problem: Reported pKd for Cl.Cl.Cl.N#Cc1ccc(CCNc2nccc(-c3cccc(CN4CCNCC4)c3)n2)cc1 : what is it?
Result: < 5.00

====

Each item that follows carries a reported %Inh.
tested on: RPS6KA5(Kin.Dom.2-C-terminal); conditions: concentration: 1 μM, replicates: in singlicate; n = 1
State just the number; it will be interpreted in %.

Solved entries (count: 6):
Molecule	Measured target	%Inh [%]
Fc1ccc(-c2nc[nH]c2-c2ccncc2)cc1 [SB-217360]	RPS6KA5(Kin.Dom.2-C-terminal)	19
CNCc1ccc2nc(NC(=O)c3ccc(C(C)(C)C)cc3)cn2c1	RPS6KA5(Kin.Dom.2-C-terminal)	0
CC[C@@H]1CO[C@H](C(=O)Nc2ccccc2)CN1c1cc(-c2ccc3c(N)n[nH]c3c2)nc(NC)n1 [GSK2376236]	RPS6KA5(Kin.Dom.2-C-terminal)	23
Cc1cnc(N)c(/C=C/c2cncc(C(=O)NCCc3ccc(Cl)cc3Cl)c2)c1.Cl [GSK190937]	RPS6KA5(Kin.Dom.2-C-terminal)	0
CC(=O)c1c(C)c2cnc(Nc3ccc(N4CCNCC4)cn3)nc2n(C2CCCC2)c1=O	RPS6KA5(Kin.Dom.2-C-terminal)	0
Cc1nccc(-c2c(-c3ccc(F)cc3)ncn2CCCN2CCOCC2)n1.Cl [SB-282975]	RPS6KA5(Kin.Dom.2-C-terminal)	8

Problem: Reported %Inh for c1ccc(-c2ccnc3[nH]ccc23)cc1 [SB-693578] : what is it?
Result: 26

Problem: // next record COc1ccc(Nc2nccc(N3CCC(NC(=O)C(C)c4ccc(Cl)cc4)C3)n2)cc1 (centres unmarked) [GSK1379735]
Result: 0

Problem: // next record CNc1cc(-c2ccc3c(N)n[nH]c3c2)nc(N)n1 [GSK2224810]
Result: 35

====

system: PRKCD; conditions: concentration: 1 μM, replicates: in singlicate; n = 1
Each item that follows carries a reported %Inh.
State just the number; it will be interpreted in %.

Solved entries (count: 5):
Molecule	%Inh (%)
COc1ccc(-c2coc3ccc(-c4nnc(C)o4)cc23)cc1	5
O=c1cc(N2CCOCC2)nc2n(Cc3cccc(Cl)c3Cl)c3ccccc3n12	32
CS(=O)(=O)CCNCc1nc(-c2ccc3ncnc(Nc4ccc5c(cnn5Cc5ccccc5)c4)c3c2)cs1.Cl.Cl	0
Cc1c(Cn2c3ccccc3n3c(=O)cc(N4CCOCC4)nc23)cccc1C(F)(F)F	0
COc1ccc2cc(-c3nc(-c4ccccc4C(C)C)[nH]c3-c3ccncc3)ccc2c1	0

Problem: Reported %Inh for Nc1cccc(-c2ccc3c(N)n[nH]c3c2)n1 : what is it?
Result: 0

Problem: // next record CC(=O)c1c(C)c2cnc(Nc3ccn(C)n3)nc2n(C2CCCC2)c1=O
Result: 0

Problem: // next record Fc1ccc(-c2nn3cccc(F)c3c2-c2ccncc2)cc1
Result: 19

Problem: // next record NS(=O)(=O)c1cccc(N/C=C2\C(=O)Nc3ccc(S(=O)(=O)Cc4c(Cl)cccc4Cl)cc32)c1
Result: 0

Problem: // next record O=C1NC(=O)C(c2ccc(Cl)cc2)=C1Nc1cccc(Cl)c1
Result: 12

Problem: // next record COc1ccc(Nc2nccc(NCCNC(=O)Nc3cc(C)ccc3C)n2)cc1
Result: 10

Problem: // next record COc1nccc(-c2c(-c3ccc(F)cc3)ncn2CCCN2CCOCC2)n1
Result: 38

Problem: // next record CCc1ccc(-c2ccc3c(c2)-c2n[nH]cc2S(=O)(=O)N3C)cc1
Result: 0

====

system: ULK3; conditions: concentration: 1 μM, replicates: in singlicate; n = 1
Each item that follows carries a reported %Inh.
State just the number; it will be interpreted in %.

Solved entries (count: 4):
Compound	Measured target	Val
Fc1ccc(-c2nn3cccc(F)c3c2-c2ccncc2)cc1 [GW475620]	ULK3	12
Cc1ccc(NC(=O)Nc2ccc(Cl)c(C(F)(F)F)c2)cc1-c1ccc(C(=O)Nc2ccncc2)cc1 [GSK1398470]	ULK3	51
CC(=O)c1cccc(NC(=O)NC2CCN(c3ccnc(Nc4ccc(F)cc4)n3)C2)c1 (centres unmarked) [GSK1379710]	ULK3	10
CNC(=O)c1ccc(C)c(-n2c(C)cc(OCc3ccc(F)cc3F)c(Br)c2=O)c1	ULK3	0

Problem: Reported %Inh for COc1ccc(Nc2nccc(-c3ccc(NC(=O)c4cc5cc(F)ccc5[nH]4)cc3)n2)cc1 [GSK1229496] : what is it?
Result: 8

Problem: // next record Cc1cnc(N)c(/C=C/c2cncc(C(=O)NCCc3ccc(Cl)cc3Cl)c2)c1.Cl [GSK190937]
Result: 0

Problem: // next record O=C1NC(=O)C(c2ccc(Cl)cc2)=C1Nc1cccc(Cl)c1 [SB-317651]
Result: 1

Problem: // next record Fc1ccc(-c2nc[nH]c2-c2ccncc2)cc1 [SB-217360]
Result: 16

Problem: // next record COc1cccc(NC(=O)Nc2ccc(C)c(-c3ccc(C(=O)Nc4ccncc4)cc3)c2)c1 [GSK1398474]
Result: 0

Problem: // next record NS(=O)(=O)c1cccc(N/C=C2\C(=O)Nc3ccc(S(=O)(=O)Cc4c(Cl)cccc4Cl)cc32)c1 [GSK398099]
Result: 19

Problem: // next record COc1ccc2cc(-c3nc(-c4ccccc4C(C)C)[nH]c3-c3ccncc3)ccc2c1 [SB-660566]
Result: 14

Problem: // next record Cc1ccccc1Cn1ccn2c(=O)cc(N3CCOCC3)nc12 [GSK2269905]
Result: 9

Problem: // next record CNc1nc(-c2ccc3c(N)n[nH]c3c2)cc(N2C[C@@H](C(=O)NC3CCCCC3)OC[C@H]2C)n1 [GSK2375584]
Result: 0

Problem: // next record Cn1cncc1-c1cc2c(Nc3ccc(OCc4ccccc4)cc3)ncnc2cn1 [GW281179]
Result: 0

Problem: // next record CNc1nc(-c2ccc3c(N)n[nH]c3c2)cc(N2C[C@@H](C(=O)Nc3ccccc3)CC[C@H]2C)n1 [GSK2298859]
Result: 0

Problem: // next record Cn1cnc2c(N)ncnc21 [SKF-97623]
Result: 0

Problem: // next record Cc1ccc(NC(=O)Nc2ccccc2)cc1-c1ccc(C(=O)Nc2ccncc2)cc1 [GSK1398471]
Result: 7

Problem: // next record COc1cccc(CNC(=O)NC2CCN(c3ccnc(Nc4ccc(F)cc4)n3)C2)c1 (centres unmarked) [GSK1379723]
Result: 4

Problem: // next record COc1ccc(Nc2nccc(N3CCC(NC(=O)C(C)c4ccc(Cl)cc4)CC3)n2)cc1 (centres unmarked) [GSK1379812]
Result: 0
